This section presents compounds with their documented IRF Lucia reporter activity values.
# System: RAW-Dual
# assay explanation: IRF Lucia reporter activity, fold change vs agonist alone; higher = enhanced IRF activity
# particulars: library stock concentration (final ~1000-fold dilution): 10 mM; cytotoxicity flag (confluency mask): not cytotoxic; agonist: MPLA (TLR4) […]
Whole data set: some 2,900 compounds, median “IRF Lucia reporter activity, fold change vs agonist alone” near 0.9, cut for the highest 2% near 2.8. Many of the other results were omitted from the sample, so the highest values are more common in it than they were.
Respond using a number only.

Consider the following illustrative entries.
compound: COc1ccc2cc1Oc1ccc(cc1)CC1c3cc(c(OC)cc3CCN1C)Oc1c(OC)c(OC)cc3c1C(C2)N(C)CC3 (centres undefined)
numeric value: 1.07
//
compound: COC1=CC(c2cc3ccccc3[nH]2)=N/C1=C\c1[nH]c(C)cc1C.CS(=O)(=O)O
numeric value: 5.45
//
compound: COC(=O)C1=C(C)NC(C)=C(C(=O)OC)C1c1ccccc1[N+](=O)[O-]
numeric value: 0.406
//
compound: Cc1oncc1C(=O)Nc1ccc(C(F)(F)F)cc1
numeric value: 1.62
//
compound: COC(=O)C1=C(C)NC(C)=C(C(=O)OCC(C)C)C1c1ccccc1[N+](=O)[O-] (centres undefined)
numeric value: 0.508
//
compound: Cc1cc(C#N)cc(C)c1Oc1nc(Nc2ccc(C#N)cc2)nc(N)c1Br
numeric value: 2.4
//
compound: CCCC(=O)OCOC(=O)C1=C(C)NC(C)=C(C(=O)OC)C1c1cccc(Cl)c1Cl (centres undefined)
numeric value: 0.992
//
compound: CCC(NC(=O)C(C)NC)C(=O)N1CC(O)CC1Cc1c(-c2[nH]c3cc(F)ccc3c2CC2CC(O)CN2C(=O)C(CC)NC(=O)C(C)NC)[nH]c2cc(F)ccc12 (centres undefined)
numeric value: 0.519
//
compound: O=C(NCCN1CCOCC1)Nc1nc2ccc(Sc3nnc4ccc(-c5ccc(F)cc5)nn34)cc2s1
numeric value: 0.994
//
compound: CCOC(=O)c1ccc(NC2CCCCC2)c(N)c1
numeric value: 1.83

Supply IRF Lucia reporter activity value. Item: "Cc1cc(C)c(/C=C2\C(=O)Nc3ccccc32)[nH]1" 0.781

Provide only the value of recorded IRF Lucia reporter activity for "CCCS(=O)(=O)Nc1ccc(F)c(C(=O)c2c[nH]c3ncc(-c4ccc(Cl)cc4)cc23)c1F" 0.473

Write down IRF Lucia reporter activity measured for item CC1CN(CC(=O)Nc2ccc3c(c2)Cc2cccc(-c4cc(=O)cc(N5CCOCC5)o4)c2S3)CC(C)O1 (centres undefined) 5.96
